Origin of values: patent US20240158385A1

TARGET SYSTEM: human KCNK13 (Homo sapiens, UniProt Q9HB14)
Construct: expressed in transfected cells
Sequence (Q9HB14 1-408): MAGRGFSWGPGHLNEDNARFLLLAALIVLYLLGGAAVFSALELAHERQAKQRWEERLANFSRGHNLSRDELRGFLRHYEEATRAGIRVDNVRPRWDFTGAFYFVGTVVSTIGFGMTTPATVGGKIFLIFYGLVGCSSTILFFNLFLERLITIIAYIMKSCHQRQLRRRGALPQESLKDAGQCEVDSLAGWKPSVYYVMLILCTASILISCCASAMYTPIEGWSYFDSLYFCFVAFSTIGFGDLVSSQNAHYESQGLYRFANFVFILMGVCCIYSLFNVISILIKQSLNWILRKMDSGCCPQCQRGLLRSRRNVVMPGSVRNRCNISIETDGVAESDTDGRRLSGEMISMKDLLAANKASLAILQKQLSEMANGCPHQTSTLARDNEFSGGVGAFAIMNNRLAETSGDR
TEST SUMMARY: KCNK13 antagonist activity, thallium (Tl+) flux FLIPR assay
Assay type: cell-based
CONDITION DESCRIPTION: HEK 293 cells stably expressing human KCNK13; Tl+ sensitive dye, FLIPR; compounds 15 minutes prior to thallium sulfate; 10 point half log curves from 10 PM; read-out: hKCNK13 IC50
Method: KCNK13 antagonist activity was determined by measuring changes in intracellular Thallium (Tl^+) concentrations using a Tl^+ sensitive fluorescent dye. The changes in fluorescent signal were monitored by Fluorescent Imaging Plate Reader (FLIPR™) technology available from Molecular Devices, LLC, US. KCNK13 mediated increases in intracellular Tl+concentration were readily detected by addition of a thallium sulfate stimulus. […] The IC50 values were determined from ten point concentration response curves. […]
READOUT TYPE: IC50

// returns reported IC50 for input CCc1nonc1-c1nc2ccccc2n1Cc1cccnc1
< 1000 nM

Given the compound Cc1nonc1-c1nc2cc(F)cc(F)c2n1Cc1cccnc1 , what is its reported IC50?
< 50 nM

Recorded IC50 of Cc1nonc1-c1nc2ccccc2n1Cc1cncnc1 , please.
< 100 nM
